FYI, the data here is from ChEMBL document CHEMBL5143670.

EXPERIMENT NOTES: Metabolic stability in mouse hepatocyte assessed as intrinsic clearance measured per 10^6 cells
Format: ADME, cell-based
RECORDED CONDITIONS: hepatocytes, read-out: CLH
MEASURED QUANTITY: hepatocyte CLint (µL/min/1e6 cells)

[[record]]
mol_smiles = "CC/C(=C(/c1ccc(/C=C/C(=O)O)cc1)c1[nH]c2ccccc2c1Cl)c1ccc(F)cc1Cl"
measured_quantity = "hepatocyte CLint"
endpoint_unit = "µL/min/1e6 cells"
measured_number = 9.8


----------
EXPERIMENT NOTES: AUC (0 to 24 hrs) in Sprague-Dawley rat at 1 mg/kg, po
Assay type: ADME, organism-based
Design: time < 24 hr, dose 1 mg/kg, route po
RECORDED CONDITIONS: in vivo
MEASURED QUANTITY: AUC(0-t) at 24 h (µM·h)

[[record]]
mol_smiles = "CC/C(=C(/c1ccc(/C=C/C(=O)O)cc1)c1[nH]c2ccccc2c1Cl)c1ccc(F)cc1Cl"
endpoint_unit = "µM·h"
measured_number = 2.7


----------
EXPERIMENT NOTES: Clearance in iv dosed CD-1 mouse
Format: ADME, organism-based
RECORDED CONDITIONS: in vivo
Listed below: clearance values for each entry.
MEASURED QUANTITY: clearance (mL/min/kg)

[[record]]
mol_smiles = "CC/C(=C(/c1ccc(/C=C/C(=O)O)cc1)c1[nH]c2ccccc2c1Cl)c1ccc(Cl)cc1C#N"
endpoint_unit = "mL/min/kg"
measured_number = 29.7

[[record]]
mol_smiles = "CC/C(=C(/c1ccc(/C=C/C(=O)O)cc1)c1[nH]c2ccccc2c1C#N)c1ccc(F)cc1Cl"
endpoint_unit = "mL/min/kg"
measured_number = 104


----------
EXPERIMENT NOTES: Volume of distribution in iv dosed Sprague-Dawley rat
Assay type: ADME, organism-based
RECORDED CONDITIONS: in vivo
MEASURED QUANTITY: Vd

[[record]]
mol_smiles = "CC/C(=C(/c1ccc(/C=C/C(=O)O)cc1)c1[nH]c2ccccc2c1Cl)c1ccc(F)cc1Cl"
result = "2 L/kg"


----------
EXPERIMENT NOTES: Metabolic stability in human hepatocytes assessed as intrinsic clearance measured per million cells
Type: ADME, cell-based, Hepatocyte
RECORDED CONDITIONS: read-out: CLH
MEASURED QUANTITY: hepatocyte CLint (µL/min/1e6 cells)

[[record]]
mol_smiles = "CC/C(=C(/c1ccc(/C=C/C(=O)O)cc1)c1[nH]c2ccccc2c1Cl)c1ccc(F)cc1Cl"
measured_quantity = "hepatocyte CLint"
measured_number = 15.2


----------
EXPERIMENT NOTES: C0 in Beagle dog at 1 mg/kg, iv
Format: ADME, organism-based, Canis lupus familiaris
RECORDED CONDITIONS: in vivo
MEASURED QUANTITY: C0 (µM)

[[record]]
mol_smiles = "CC/C(=C(/c1ccc(/C=C/C(=O)O)cc1)c1[nH]c2ccccc2c1Cl)c1ccc(F)cc1Cl"
measured_number = 12.8


----------
TARGET DESC: UniProtKB P33261
Sequence (P33261 whole entry): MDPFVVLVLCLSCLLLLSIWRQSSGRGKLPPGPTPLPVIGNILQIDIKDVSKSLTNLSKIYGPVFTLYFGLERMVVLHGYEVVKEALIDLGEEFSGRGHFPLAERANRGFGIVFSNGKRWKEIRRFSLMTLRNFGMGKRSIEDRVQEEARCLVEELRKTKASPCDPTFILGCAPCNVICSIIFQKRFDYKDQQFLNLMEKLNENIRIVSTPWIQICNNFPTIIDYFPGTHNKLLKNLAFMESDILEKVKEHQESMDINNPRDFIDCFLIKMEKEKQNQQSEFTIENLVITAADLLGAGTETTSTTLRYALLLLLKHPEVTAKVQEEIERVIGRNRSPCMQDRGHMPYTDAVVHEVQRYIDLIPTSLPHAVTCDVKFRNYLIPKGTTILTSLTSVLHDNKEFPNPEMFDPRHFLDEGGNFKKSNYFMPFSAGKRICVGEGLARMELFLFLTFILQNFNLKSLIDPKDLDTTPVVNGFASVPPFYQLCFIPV
pIC50: −log10 of the molar value.
MEASURED QUANTITY: pIC50

[[record]]
mol_smiles = "CC/C(=C(/c1ccc(/C=C/C(=O)O)cc1)c1[nH]c2ccccc2c1Cl)c1ccc(F)cc1Cl"
target_desc = "UniProtKB P33261"
measured_number = 5.00


----------
EXPERIMENT NOTES: Volume of distribution in iv dosed CD-1 mouse
Format: ADME, organism-based
RECORDED CONDITIONS: in vivo
Reported values of Vd for individual entries
MEASURED QUANTITY: Vd

[[record]]
mol_smiles = "CC/C(=C(/c1ccc(/C=C/C(=O)O)cc1)c1[nH]c2ccccc2c1Cl)c1ccc(F)cc1Cl"
result = "0.5 L/kg"

[[record]]
mol_smiles = "CC/C(=C(/c1ccc(/C=C/C(=O)O)cc1)c1[nH]c2ccccc2c1C#N)c1ccc(F)cc1Cl"
result = "4.28 L/kg"

[[record]]
mol_smiles = "CC/C(=C(/c1ccc(/C=C/C(=O)O)cc1)c1[nH]c2ccccc2c1Cl)c1ccc(Cl)cc1C#N"
result = "4.48 L/kg"


----------
EXPERIMENT NOTES: Efflux ratio of apparent permeability from basolateral to apical side over apical to basolateral side in human Caco-2 cells
Format: ADME, cell-based
MEASURED QUANTITY: efflux ratio

[[record]]
mol_smiles = "CC/C(=C(/c1ccc(/C=C/C(=O)O)cc1)c1[nH]c2ccccc2c1Cl)c1ccc(F)cc1Cl"
measured_number = 1.32


----------
EXPERIMENT NOTES: Induction of estrogen receptor degradation in human MCF7 cells incubated for 4 hrs by in-cell Western assay
Format: cell-based
RECORDED CONDITIONS: MCF7, 4 h
MEASURED QUANTITY: EC50 (nM)

[[record]]
mol_smiles = "CC/C(=C(/c1ccc(/C=C/C(=O)O)cc1)c1[nH]c2ccccc2c1Cl)c1ccc(Cl)cc1C#N"
measured_number = 0.735

[[record]]
mol_smiles = "CC/C(=C(/c1ccc(/C=C/C(=O)O)cc1)c1[nH]c2ccccc2c1C#N)c1ccc(F)cc1Cl"
measured_number = 2.6

[[record]]
mol_smiles = "CC/C(=C(/c1ccc(/C=C/C(=O)O)cc1)c1[nH]c2ccccc2c1Cl)c1ccc(F)cc1Cl"
measured_number = 2.29

[[record]]
mol_smiles = "CC/C(=C(/c1ccc(/C=C/C(=O)O)cc1)c1[nH]c2ccccc2c1Br)c1ccc(F)cc1Cl"
measured_number = 2.44


----------
EXPERIMENT NOTES: Cmax in Beagle dog at 1 mg/kg, po
Format: ADME, organism-based, Canis lupus familiaris
Design: dose 1 mg/kg, route po
RECORDED CONDITIONS: in vivo
MEASURED QUANTITY: Cmax (nM)

[[record]]
mol_smiles = "CC/C(=C(/c1ccc(/C=C/C(=O)O)cc1)c1[nH]c2ccccc2c1Cl)c1ccc(F)cc1Cl"
measured_quantity = "Cmax"
measured_number = 2550


----------
EXPERIMENT NOTES: AUC (0 to 24 hrs) in Beagle dog at 1 mg/kg, iv
Type: ADME, organism-based, Canis lupus familiaris
Design: time < 24 hr, dose 1 mg/kg, route iv
RECORDED CONDITIONS: in vivo
MEASURED QUANTITY: AUC(0-t) at 24 h (µM·h)

[[record]]
mol_smiles = "CC/C(=C(/c1ccc(/C=C/C(=O)O)cc1)c1[nH]c2ccccc2c1Cl)c1ccc(F)cc1Cl"
measured_number = 43.8


----------
EXPERIMENT NOTES: AUC (0 to 24 hrs) in Sprague-Dawley rat at 1 mg/kg, iv
Format: ADME, organism-based
Set-up: time < 24 hr, dose 1 mg/kg, route iv
RECORDED CONDITIONS: in vivo
MEASURED QUANTITY: AUC(0-t) at 24 h (µM·h)

[[record]]
mol_smiles = "CC/C(=C(/c1ccc(/C=C/C(=O)O)cc1)c1[nH]c2ccccc2c1Cl)c1ccc(F)cc1Cl"
measured_number = 4.82


----------
EXPERIMENT NOTES: Cmax in CD-1 mouse at 2.5 mg/kg, po
Format: ADME, organism-based
Set-up: dose 2.5 mg/kg, route po
RECORDED CONDITIONS: in vivo
Attribute: Cmax
MEASURED QUANTITY: Cmax (nM)

[[record]]
mol_smiles = "CC/C(=C(/c1ccc(/C=C/C(=O)O)cc1)c1[nH]c2ccccc2c1Cl)c1ccc(Cl)cc1C#N"
measured_quantity = "Cmax"
measured_number = 246

[[record]]
mol_smiles = "CC/C(=C(/c1ccc(/C=C/C(=O)O)cc1)c1[nH]c2ccccc2c1C#N)c1ccc(F)cc1Cl"
measured_quantity = "Cmax"
measured_number = 35

[[record]]
mol_smiles = "CC/C(=C(/c1ccc(/C=C/C(=O)O)cc1)c1[nH]c2ccccc2c1Cl)c1ccc(F)cc1Cl"
measured_quantity = "Cmax"
measured_number = 1870


----------
EXPERIMENT NOTES: Induction of estrogen receptor degradation in human MCF7 cells incubated for 4 hrs by in-cell Western assay
Type: cell-based
RECORDED CONDITIONS: MCF7, 4 h
pEC50: −log10 of the molar value.
Hi, to clarify the labels: 1 covers pEC50 from 8 upward, 0 covers anything below 8.

[[record]]
mol_smiles = "CC/C(=C(/c1ccc(/C=C/C(=O)O)cc1)c1[nH]c2ccccc2c1C)c1ccc(F)cc1Cl"
label = 1

[[record]]
mol_smiles = "CC/C(=C(/c1ccc(/C=C/C(=O)O)cc1)c1cc2ccccc2[nH]1)c1ccc(F)cc1Cl"
label = 0

[[record]]
mol_smiles = "CC/C(=C(/c1ccc(/C=C/C(=O)O)cc1)c1[nH]c2ccccc2c1Cl)c1ccsc1C#N"
label = 1

[[record]]
mol_smiles = "CC/C(=C(/c1ccc(/C=C/C(=O)O)cc1)c1[nH]c2ccccc2c1Cl)c1cc(Cl)sc1Cl"
label = 1


----------
EXPERIMENT NOTES: C0 in Sprague-Dawley rat at 1 mg/kg, iv
Assay type: ADME, organism-based
RECORDED CONDITIONS: in vivo
MEASURED QUANTITY: C0 (nM)

[[record]]
mol_smiles = "CC/C(=C(/c1ccc(/C=C/C(=O)O)cc1)c1[nH]c2ccccc2c1Cl)c1ccc(F)cc1Cl"
endpoint_unit = "nM"
measured_number = 2610

